# target_or_test_system: neuraminidase of seasonal influenza A(H1N1) H275Y variant virus isolates (Influenza A virus, UniProt A8C8J7, H275Y)
# Assay type: biochemical
# condition_set: read-out: IC50 Range
measure: IC50

Please fill in: IC50 reported for CCC(CC)[C@H](NC(C)=O)[C@@H]1[C@H](O)[C@@H](C(=O)O)C[C@H]1N=C(N)N = 2.46 to 511 nM

====

# target_or_test_system: neuraminidase of 2009 pandemic H1N1 H275Y variant virus isolates (Influenza A virus, UniProt C3W5S3, H275Y)
# Type: biochemical, 2009 pandemic H1N1 influenza virus
# condition_set: read-out: IC50 Mean (±SD)
measure: IC50 (nM)
One number for each entry, in nM.

Please fill in: IC50 reported for CCC(CC)[C@H](NC(C)=O)[C@@H]1[C@H](O)[C@@H](C(=O)O)C[C@H]1N=C(N)N = 10.4
